target: p38αT106M (Homo sapiens, UniProt Q16539, T106M)
Construct: purchased Eurofins Pharma Discovery Services UK Limited (KinaseProfiler service)
Sequence (Q16539 whole entry T106M): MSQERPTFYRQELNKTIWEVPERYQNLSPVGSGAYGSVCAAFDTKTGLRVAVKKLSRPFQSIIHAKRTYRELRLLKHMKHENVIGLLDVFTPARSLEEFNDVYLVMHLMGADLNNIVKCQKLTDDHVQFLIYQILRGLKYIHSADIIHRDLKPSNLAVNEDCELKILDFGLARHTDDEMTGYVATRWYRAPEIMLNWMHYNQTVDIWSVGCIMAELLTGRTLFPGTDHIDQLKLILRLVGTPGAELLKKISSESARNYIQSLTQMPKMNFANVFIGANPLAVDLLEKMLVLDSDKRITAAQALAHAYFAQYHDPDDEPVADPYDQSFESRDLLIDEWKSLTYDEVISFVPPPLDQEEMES
test name: KinaseProfiler quantitative kinase assay (Eurofins), MBP substrate
Format: biochemical
experimental setup: 10 µM; ATP at Km 70 µM; means of duplicate determinations
property: %kinase activity relative to control, p38αT106M (%)

Study these solved cases before continuing.
- compound: "CCCCCC(=O)Nc1nnc(Sc2ccnc3cc(Cl)ccc23)s1 [SU-004]"
  unit: "%"
  assay value: 94
- compound: "CC(=O)Nc1nnc(Sc2ccnc3cc(Cl)ccc23)s1 [SU-003]"
  unit: "%"
  assay value: 94
- compound: "Nc1nnc(Sc2ccnc3cc(Cl)ccc23)s1 [SU-001]"
  unit: "%"
  assay value: 91

P = CCCCC/C=C/C(=O)Nc1nnc(Sc2ccnc3cc(Cl)ccc23)s1 [SU-005]
Q = CCCCCCCC(=O)Nc1nnc(Sc2ccnc3cc(Cl)ccc23)s1 [SU-002]
Q: // max by %kinase activity relative to control, p38αT106M over [ P , Q ] Kindly state the label of the option you pick.
Ans: Q

Taken from paper PMC4949465.
